Listed molecules paired with reported pKa
Target: Phenylethanolamine N-methyltransferase (Bos taurus) (UniProt P10938)
Sequence (whole entry): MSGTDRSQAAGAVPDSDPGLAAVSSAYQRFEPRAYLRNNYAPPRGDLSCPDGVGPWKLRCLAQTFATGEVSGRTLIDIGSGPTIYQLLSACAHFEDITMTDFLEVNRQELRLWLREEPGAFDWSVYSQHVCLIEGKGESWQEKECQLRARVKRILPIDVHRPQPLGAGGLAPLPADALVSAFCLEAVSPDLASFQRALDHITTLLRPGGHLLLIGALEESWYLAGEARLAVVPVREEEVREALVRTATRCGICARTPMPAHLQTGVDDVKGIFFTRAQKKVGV
Assay: Acid dissociation constant of phenylethanolamine N-methyl-transferase (PNMT) inhibition
quantity.kind: pKa

> print(dat)
         test.smiles  data.value
 1    NCc1cccc(Br)c1        8.98
 2    NCc1ccc(Cl)cc1        9.14
 3  NCc1cccc(Cl)c1Cl        7.35
 4     NCc1cccc(F)c1        9.04
 5        NCc1ccccc1        9.38
 6     Cc1cccc(CN)c1        9.45
 7     NCc1ccc(F)cc1         9.3
 8    NCc1ccc(Br)cc1        9.13
 9     Cc1ccc(CN)cc1        9.54
10    NCc1cccc(Cl)c1        9.01
11    COc1ccc(CN)cc1        9.51

====

Listed molecules paired with reported pI50
biological target: Phenylethanolamine N-methyltransferase (Bos taurus); experiment: Molar pI50 value for phenylethanolamine N-methyl-transferase (PNMT) inhibition
quantity.kind: pI50 (M)

> print(dat)
      test.smiles  data.value
1   NCc1cccc(F)c1           4
2  NCc1cccc(Br)c1        5.17
3  NCc1cccc(Cl)c1        5.07
4   NCc1ccc(F)cc1        3.17
5  NCc1ccc(Br)cc1        4.37
6   Cc1cccc(CN)c1        3.82
7  COc1ccc(CN)cc1        2.78
8  NCc1ccc(Cl)cc1        4.07
9   Cc1ccc(CN)cc1        3.16

====

Listed molecules paired with reported Ki
Target: Phenylethanolamine N-methyltransferase (Bos taurus, UniProt P10938)
Sequence (P10938 whole entry): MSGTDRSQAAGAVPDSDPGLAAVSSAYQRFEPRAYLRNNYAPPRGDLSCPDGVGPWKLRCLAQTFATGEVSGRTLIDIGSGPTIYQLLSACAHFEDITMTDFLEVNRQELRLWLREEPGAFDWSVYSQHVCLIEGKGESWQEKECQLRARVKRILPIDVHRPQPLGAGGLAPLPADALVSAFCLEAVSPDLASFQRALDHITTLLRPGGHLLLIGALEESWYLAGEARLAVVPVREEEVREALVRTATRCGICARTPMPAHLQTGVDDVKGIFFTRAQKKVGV
quantity.kind: Ki (µM)

> print(dat)
                                   molecule  comparison.sign  data.value
1                  c1ccc2c(c1)CC1CC[C@H]2N1                =         153
2  N[C@@H]1CC2CCC1c1ccccc12 (stereo partly specified)                >        1000
3      CC1Cc2ccccc2CN1 (stereo unspecified)                =           3
4  NC1CC2C[C@@H]1c1ccccc12 (stereo partly specified)                =         479
5                  c1ccc2c(c1)C1CC[C@H]2NC1                >        2000
6                   c1ccc2c(c1)C1CC[C@H]2N1                >        2000
